- Measurement Target: Human Myelin Basic Protein (Homo sapiens)
- Sequence (P02686 135-304 limits assumed): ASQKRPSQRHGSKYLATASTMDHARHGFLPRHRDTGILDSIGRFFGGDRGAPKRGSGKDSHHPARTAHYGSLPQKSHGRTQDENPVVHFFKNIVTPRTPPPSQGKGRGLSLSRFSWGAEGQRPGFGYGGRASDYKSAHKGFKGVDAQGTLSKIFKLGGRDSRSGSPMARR
- Method Description: phage display, NGS count
Readout Name: Count

substance="HYSPNVM (peptide)" result=9
substance="YATATPS (peptide)" result=8
substance="NMYPRVT (peptide)" result=7
substance="HTGLRSL (peptide)" result=7

Now consider a different substance.
Prompt: What is its Count for Human Myelin Basic Protein (Homo sapiens)? Entry: KYRHGAE (peptide)
Completion: 7

* * *

Each entry below carries its reported Count.
- Tested on: Human MPZ
- Sequence (P25189 30-153 limits assumed): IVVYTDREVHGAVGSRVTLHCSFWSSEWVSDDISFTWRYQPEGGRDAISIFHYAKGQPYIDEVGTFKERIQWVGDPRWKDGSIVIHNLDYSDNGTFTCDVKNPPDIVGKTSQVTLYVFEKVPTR
- Method Description: Phage display library screening (Example 2, Python script analysis), binding to Human MPZ
- Condition Summary: combined unique sequence count, Python/R script analysis

substance="LPNANNL (Human MPZ-binding peptide)" measurement_target="Human MPZ" result=41
substance="AWTMRAS (Human MPZ-binding peptide)" measurement_target="Human MPZ" result=39

Prompt: What value of measured Count is listed for YEGERGA (Human MPZ-binding peptide) ?
Completion: 39

* * *

- Tested on: Laminin 421/521
- Method Description: Phage display library screening (Example 2), NEB laminin-binding peptides
- Design: species or system human
- Condition Summary: Laminin 421/521, not 211 and 411; combined unique sequence count, Python/R script analysis
Under this convention, True denotes Count strictly below 40 and False denotes Count at or above 40.

substance="LGSSRSPSSFLG (Laminin 421/521-binding peptide)" cat=True
substance="MTHSAHNSQKTN (Laminin 421/521-binding peptide)" cat=False

Prompt: I'd appreciate it if you could check whether CSHHKLKQC (Laminin 421/521-binding peptide) has Count smaller than 40.
Completion: False

Prompt: Item TSAVSLR (Laminin 421/521-binding peptide) : Count beneath 40, strictly?
Completion: True

Prompt: Dear reviewer, please state whether SVQTPMWRSLVG (Laminin 421/521-binding peptide) has Count strictly beneath 40.
Completion: True

Prompt: is_below(Count, 40) for LDRNADSVRAVL (Laminin 421/521-binding peptide) ?
Completion: False

Prompt: In plain terms, does AQNLRVHAWASL (Laminin 421/521-binding peptide) come in under 40 for Count?
Completion: True

Prompt: Count strictly < 40 for this substance? CKSPAIKGC (Laminin 421/521-binding peptide)
Completion: True

Prompt: Criterion: Count strictly below 40. Is it met by QINWKQADKNAD (Laminin 421/521-binding peptide) ?
Completion: True

Prompt: Dear colleague, could you confirm whether Count of GFADVIHRKWSS (Laminin 421/521-binding peptide) falls below 40? Thanks.
Completion: False

Prompt: Hello, I'm reviewing records and need to know if Count of DWTQVRVTNWFL (Laminin 421/521-binding peptide) is below 40. Could you check?
Completion: True

Prompt: Please check: Count for AWVEAQNASNPS (Laminin 421/521-binding peptide) , strictly under 40 or not?
Completion: False

Prompt: Record CNSWKAAKC (Laminin 421/521-binding peptide) : is its Count strictly below 40?
Completion: True

Prompt: For this substance, is Count lower than 40? CSSQAKRSC (Laminin 421/521-binding peptide)
Completion: True

Prompt: Could you please tell me whether Count recorded for GRTIHSM (Laminin 421/521-binding peptide) is less than 40?
Completion: False

Prompt: Decide: Count of QTLQTRH (Laminin 421/521-binding peptide) strictly below 40?
Completion: False

Prompt: Does this substance meet the criterion Count < 40? KISMNRLHANFT (Laminin 421/521-binding peptide)
Completion: False
